Cited source for all entries: patent US20190241654A1

ASSAYED SYSTEM: CD47 on CCRF-CEM cells (human, UniProt Q08722 19-323)
Sequence (Q08722 19-323): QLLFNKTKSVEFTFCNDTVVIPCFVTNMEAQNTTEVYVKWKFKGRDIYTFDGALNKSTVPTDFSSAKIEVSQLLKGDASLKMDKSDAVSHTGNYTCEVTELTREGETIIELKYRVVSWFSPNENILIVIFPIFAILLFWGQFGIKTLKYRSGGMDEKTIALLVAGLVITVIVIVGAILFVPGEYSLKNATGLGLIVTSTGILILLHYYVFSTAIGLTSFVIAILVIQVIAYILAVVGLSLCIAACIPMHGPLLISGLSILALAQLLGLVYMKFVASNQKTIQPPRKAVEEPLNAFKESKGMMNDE
MEASUREMENT PROTOCOL: cell-based or functional assay
Below, each of the binders is paired with its reported Phagocytosis EC50 (ug/mL), Donor 2 value.
Write the value in µg/mL as a bare number.

Look over these answered cases.
- Ab480/Ab1122 (HC Ab480, LC Ab1122) anti-CD47 antibody (antibody, V domains shown, FR and CDR L2 variant of AbParental; The label order is HC/LC although the head says 'LC/HC'; r445 is used) VH: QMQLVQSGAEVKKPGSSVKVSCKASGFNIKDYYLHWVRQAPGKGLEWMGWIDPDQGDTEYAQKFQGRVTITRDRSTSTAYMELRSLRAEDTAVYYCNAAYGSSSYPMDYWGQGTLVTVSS VL: NIQMTQSPSSLSASVGDRVTITCRASQDIHRYLSWFQQKPGKVPKHLIYRYERFVDGVPSRFSGSGSGTEFTLTISSLQPEDFATYYCLQYDEFPYTFGGGTKVEIK: 1.84
- Ab482/Ab387 (LC Ab482, HC Ab387) anti-CD47 antibody (antibody, V domains shown, Framework variant of AbParental) VH: QMQLVQSGAEVKKPGSSVKVSCKASGFNIKDYYLHWVRQAPGKGLEWMGWIDPDQGDTEYAQKFQGRVTITRDRSTSTAYMELRSLRSEDTAVYYCNAAYGSSSYPMDYWGQGTLVTVSS VL: NIQMTQSPSSMSASVGDRVTITCKASQDIHRYLSWFQQKPGKVPKHLIYRANRLVSGVPSRFSGSGSGTEFTLTISSLQPEDFATYYCLQYDEFPYTFGGGTKVEIK: 0.17

Value of measured Phagocytosis EC50 (ug/mL), Donor 2 for the entry Ab356/Ab1122 (HC Ab356, LC Ab1122) anti-CD47 antibody (antibody, V domains shown, FR and CDR L2 variant of AbParental; The label order is HC/LC although the head says 'LC/HC'; r445 is used) VH: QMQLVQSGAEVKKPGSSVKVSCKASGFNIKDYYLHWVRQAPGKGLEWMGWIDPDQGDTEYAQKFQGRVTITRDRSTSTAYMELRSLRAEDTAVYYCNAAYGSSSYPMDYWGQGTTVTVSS VL: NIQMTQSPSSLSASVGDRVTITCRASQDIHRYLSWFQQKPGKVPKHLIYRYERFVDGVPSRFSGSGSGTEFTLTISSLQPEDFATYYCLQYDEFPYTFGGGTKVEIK : 1.83
